Below, each entry is listed alongside its reported pIC50.
- study.system: Human complement C1s enzyme (Homo sapiens, UniProt P09871)
- method: Human C1s enzyme assay
- Format: biochemical
- experimental.parameters: human complement C1s enzyme 1.16 nM, substrate Z-L-Lys-SBzl 100 μM, 5 min preincubation; read-out: IC50 (Stars), C1s Inhibiting Activity
pIC50: −log10 of the molar value.

{"compound": "O=C(NCC(=O)N1C[C@H](OC(F)F)C[C@H]1C(=O)NCc1ccc2nccn2c1)c1ccc2c(c1)Oc1ccccc1S2", "pIC50": "< 6.00"}
{"compound": "C[C@@H](NC(=O)[C@@H]1C[C@@H](S(C)(=O)=O)CN1C(=O)CNC(=O)c1ccc2c(c1)Oc1ccccc1S2)c1cc2cnccc2[nH]1", "pIC50": "> 7.00"}
{"compound": "C[C@@H](NC(=O)[C@@H]1C[C@@H](C(F)(F)F)CN1C(=O)CNC(=O)c1ccc2c(c1)Oc1ccccc1S2)c1cc2cnccc2[nH]1", "pIC50": "> 7.00"}
{"compound": "O=C(NCC(=O)N1C[C@H](OC(F)F)C[C@H]1C(=O)NCc1cc2cnccc2[nH]1)c1ccc2oc3cccc(F)c3c2c1", "pIC50": "> 7.00"}
{"compound": "O=C(NCC(=O)N1CC2(C[C@H]1C(=O)NCc1cc3cnncc3[nH]1)OCCO2)c1ccc2c(c1)Oc1ccccc1S2", "pIC50": "> 7.00"}
{"compound": "C[C@@]12C[C@@H]1N(C(=O)CNC(=O)c1ccc(Oc3ccccc3)cc1)[C@H](C(=O)NCc1ccc(Cl)cc1)C2", "pIC50": "< 6.00"}
{"compound": "C[C@@]12C[C@@H]1N(C(=O)CNC(=O)c1cccc(Oc3ccc(F)cc3)c1)[C@H](C(=O)NCc1cc3cnccc3s1)C2", "pIC50": "> 7.00"}
{"compound": "C[C@@]12C[C@@H]1N(C(=O)CNC(=O)CCCOc1ccccc1)[C@H](C(=O)NC1CN(C(=O)[C@H]3CNCCN3)C1)C2", "pIC50": "< 6.00"}
{"compound": "O=C(NCC(=O)N1C[C@H](OC(F)F)C[C@H]1C(=O)NCc1ccc2nncn2c1)c1ccc2c(c1)Oc1ccccc1S2", "pIC50": "< 6.00"}
{"compound": "O=C(NCC(=O)N1CC2(C[C@H]1C(=O)NCc1cc3cnccc3[nH]1)OCCO2)c1ccc2[nH]c3ccccc3c2c1", "pIC50": "> 7.00"}
{"compound": "O=C(NCc1cc2cnccc2[nH]1)[C@@H]1CC2(CN1C(=O)CN1Cc3ccc(-c4ccc(F)cc4F)cc3C1=O)OCCO2", "pIC50": "> 7.00"}
{"compound": "C[C@@]12C[C@@H]1N(C(=O)CNC(=O)c1ccc3c(c1)Oc1ccccc1S3)[C@H](C(=O)NCc1ccc3nc(N)[nH]c3c1)C2", "pIC50": "> 7.00"}
{"compound": "CC1CCN(C(=O)CNC(=O)c2ccc3c(c2)Oc2ccccc2S3)[C@@H]1C(=O)NCc1cc2cnccc2[nH]1 (stereo partly shown)", "pIC50": "< 6.00"}

---

- study.system: Human complement C1s enzyme (Homo sapiens)
- Sequence (P09871 438-688 limits assumed): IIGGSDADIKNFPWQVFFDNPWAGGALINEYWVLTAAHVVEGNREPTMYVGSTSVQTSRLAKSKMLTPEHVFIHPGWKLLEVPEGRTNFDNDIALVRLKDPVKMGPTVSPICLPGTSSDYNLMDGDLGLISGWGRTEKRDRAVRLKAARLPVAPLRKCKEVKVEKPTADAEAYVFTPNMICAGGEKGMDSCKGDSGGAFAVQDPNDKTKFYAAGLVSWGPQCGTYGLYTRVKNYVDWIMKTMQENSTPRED
- Sequence (P09871 16-437 partner limits assumed): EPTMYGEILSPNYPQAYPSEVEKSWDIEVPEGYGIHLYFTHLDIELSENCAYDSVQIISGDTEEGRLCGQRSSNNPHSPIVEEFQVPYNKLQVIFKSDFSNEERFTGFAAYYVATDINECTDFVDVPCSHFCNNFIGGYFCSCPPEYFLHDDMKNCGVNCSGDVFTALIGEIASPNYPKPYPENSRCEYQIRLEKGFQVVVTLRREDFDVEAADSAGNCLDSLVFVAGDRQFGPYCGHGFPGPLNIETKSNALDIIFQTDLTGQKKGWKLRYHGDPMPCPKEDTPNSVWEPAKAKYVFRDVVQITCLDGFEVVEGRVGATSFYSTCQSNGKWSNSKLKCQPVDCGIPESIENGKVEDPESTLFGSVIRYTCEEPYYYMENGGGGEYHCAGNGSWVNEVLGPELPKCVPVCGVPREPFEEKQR
- method: Human C1s enzyme assay
- Assay type: biochemical
- experimental.parameters: human complement C1s enzyme 1.16 nM, substrate Z-L-Lys-SBzl 100 μM, 5 min preincubation; read-out: IC50 (Stars), C1s Inhibiting Activity
- Method: Other standard complement assays are also available. Human complement C1s enzyme (purified from human serum, Complement Technology, Inc.) at 1.16 nM final concentration was incubated with test compound at various concentrations for 5 min at room temperature in 50 mM Tris, 1 M NaCl, pH 7.5. […] Absorbance at 405 nm (A405) was recorded at 30 second intervals for 30 min using a microplate spectrophotometer. […] ND indicates a compound for which the IC50 value is not determined.
pIC50: −log10 of the molar value.
Examples of compounds with documented pIC50 follow.

{"compound": "C[C@@]12C[C@@H]1N(C(=O)CN1Cc3cc(-c4ccc(F)cc4F)ccc3C1=O)[C@H](C(=O)NCc1cc3cnccc3[nH]1)C2 [Compound 129]", "pIC50": "> 7.00"}
{"compound": "Cc1ccc(Oc2cccc(C(=O)NCC(=O)N3C[C@H](S(C)(=O)=O)C[C@H]3C(=O)NCc3cc4cnccc4[nH]3)c2)c(F)c1 [Compound 309]", "pIC50": "> 7.00"}
{"compound": "CN1CCc2cc(CNC(=O)[C@@H]3C[C@@H](OC(F)F)CN3C(=O)CNC(=O)c3ccc4c(c3)Oc3ccccc3S4)sc2C1 [Compound 346]", "pIC50": "< 6.00"}
{"compound": "O=C(NCC(=O)N1C[C@H](OC(F)F)C[C@H]1C(=O)NCc1cc2cnccc2[nH]1)c1ccc(Oc2ccccc2)cn1 [Compound 137]", "pIC50": "> 7.00"}
{"compound": "C[C@@]12C[C@@H]1N(C(=O)CNC(=O)c1cccc(Oc3ccccc3)c1)[C@H](C(=O)NCc1cc3cnccc3s1)C2 [Compound 246]", "pIC50": "> 7.00"}
{"compound": "O=C(NCC(=O)N1CC2(C[C@H]1C(=O)NCc1ccc[nH]1)OCCO2)c1ccc(Oc2ccccc2)cc1 [Compound 14]", "pIC50": "< 6.00"}
